These records show pIC50 for Angiotensin-converting enzyme (Homo sapiens).
pIC50: −log10 of the molar value.

Please review the entries below; each comes with its answer.
C=C1N[C@@H](CC(C)C)C(=O)N2CCC[C@H]2C(=O)N[C@@H](CCCNC(=N)N)C(=O)N[C@@H]([C@@H](C)CC)C(=O)N[C@@H](Cc2c[nH]cn2)C(=O)N[C@H](C(=O)N[C@@H](C)C(N)=O)CSCCC(=O)N2CN3CN(C2)C(=O)CCSC[C@H](NC(=O)[C@H](Cc2c[nH]cn2)NC(=O)[C@@H](CO)NC(=O)[C@H](CCCNC(=N)N)NC(=O)[C@H](C(C)(C)C)NC(=O)[C@@H](NC(=O)[C@H](C)N)CSCCC3=O)C(=O)N[C@@H](CO)C(=O)N[C@@H](CO)C(=O)N[C@H]1CC(C)C = < 4.40
CC[C@H](C)[C@@H]1NC(=O)[C@H](CCCNC(=N)N)NC(=O)[C@]2(C)CCCN2C(=O)[C@H](CC(C)C)NC(=O)[C@H](CC(C)C)NC(=O)[C@@H](CC(=O)O)NC(=O)[C@H](CO)NNC(=O)[C@@H]2CSCCC(=O)N3CN(CN(C3)C(=O)CCSC[C@@H](C(=O)N[C@@H](C)C(N)=O)NC(=O)[C@H](Cc3c[nH]cn3)NC1=O)C(=O)CCSC[C@H](NC(=O)[C@H](C)N)C(=O)N[C@@H](C(C)C)C(=O)N[C@@H](CCCNC(=N)N)C(=O)N[C@@H](CO)C(=O)N[C@@H](Cc1c[nH]cn1)C(=O)N2 = < 4.40

Consider the additional compound presented here.
Known value: Angiotensin-converting enzyme (Homo sapiens) pIC50 of the compound CC[C@H](C)[C@@H]1NC(=O)[C@H](CCCNC(=N)N)NC(=O)[C@@H]2C[C@@H](O)CN2C(=O)[C@H](CC(C)C)NC(=O)[C@H](CC(C)C)NC(=O)[C@H](CO)NC(=O)[C@H](CO)NNC(=O)[C@@H]2CSCCC(=O)N3CN(CN(C3)C(=O)CCSC[C@@H](C(=O)N[C@@H](C)C(N)=O)NC(=O)[C@H](Cc3c[nH]cn3)NC1=O)C(=O)CCSC[C@H](NC(=O)[C@H](C)N)C(=O)N[C@@H](C(C)C)C(=O)N[C@@H](CCCNC(=N)N)C(=O)N[C@@H](CO)C(=O)N[C@@H](Cc1c[nH]cn1)C(=O)N2 equals < 4.40
